Experiment: mitochondrial membrane potential change in A549 cells, profiling panel, cell-based, JC-1 fluorescence, basal, 24 h, 100 nL (AID 1138);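 note: A549 lung adenocarcinoma cells under basal conditions with no added stimulus; test concentration not given here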
Settings: higher = more signal
parameter: z-score
Please state the value as a number alone, without comment.

compound	z-score
O=C1[C@H]2C=C(Br)[C@H](C[C@@H]2c2ccccc2)[C@@]12CO2	-0.0698
CCCCCN1CC=CC23O[C@@H]4/C=C\CCCOC(=O)C4[C@H]2C(=O)N(C(CO)C(C)C)[C@@H]3C1=O (stereo not given in full)	-0.46
O=C1c2ccccc2[C@](Cc2ccccc2I)(C(=O)NC2CC2)[C@H](c2ccc(CO)cc2)N1C1CCCCC1	2.01

Give its z-score value. Item: C=CCOC(=O)[C@@H]1[C@H]2C(=O)O[C@H](c3ccccc3)[C@H](c3ccccc3)N2[C@H](c2ccc(OCCOC(=O)[C@@H]3C[C@@H]4C(=O)N5CCC[C@H]5C(=O)N4[C@@H]3c3ccc(O)cc3)cc2)[C@@]12C(=O)Nc1ccc(I)cc12
-1.58

# get_value(readout='z-score', item= CCOC(=O)[C@H]1C/C=C/C[C@H](C(=O)OCC)C(=O)O[C@H]2[C@@H](OC)O[C@H](CO)[C@@H](OC(=O)Nc3ccc(C#N)cc3)[C@@H]2OC1=O )
-1.92

Query (compound): COCCOC(=O)N1C(=O)[C@@]2(c3cc(C#CCCO)ccc31)[C@H](C(=O)N1CCN(c3ncccn3)CC1)[C@H]1C(=O)O[C@H](c3ccccc3)[C@H](c3ccccc3)N1[C@@H]2c1ccccc1OCCO ; field requested: z-score
-0.778

Please give the measured z-score for this compound: COCCOC(=O)N1C(=O)[C@@]2(c3cc(C#CCNC(N)=O)ccc31)[C@H](C(=O)NC[C@H](O)c1ccccc1)[C@H]1C(=O)O[C@H](c3ccccc3)[C@H](c3ccccc3)N1[C@@H]2c1ccccc1OCCO
-1.08

Query: z-score; subject: CN(C)C(=O)[C@]1(Cc2ccccc2N=[N+]=[N-])N=C(c2ccc(OCCCO)cc2)O[C@@H]1c1ccccc1
1.71

Which z-score value is on record for COc1ccc(C(=O)Nc2ccc(CN3C(=O)[C@@]4(O[C@@H](CCn5cc([C@H](O)c6ccccc6)nn5)[C@H]([Si](C)(C)c5ccc(OC)cc5)[C@H]4C)c4ccccc43)cc2)cc1 ?
1.83

Returns the measured z-score for the input compound. Input: COc1ccc(C#Cc2ccc3c(c2)[C@]2(C(=O)N3)[C@H](c3ccccc3OCCO)N3[C@H](c4ccccc4)[C@H](c4ccccc4)OC(=O)[C@H]3[C@@H]2C(=O)O)cc1
-2.59
